Molecular target: Human μ-opioid receptor (Homo sapiens)
Sequence (P35372 whole entry): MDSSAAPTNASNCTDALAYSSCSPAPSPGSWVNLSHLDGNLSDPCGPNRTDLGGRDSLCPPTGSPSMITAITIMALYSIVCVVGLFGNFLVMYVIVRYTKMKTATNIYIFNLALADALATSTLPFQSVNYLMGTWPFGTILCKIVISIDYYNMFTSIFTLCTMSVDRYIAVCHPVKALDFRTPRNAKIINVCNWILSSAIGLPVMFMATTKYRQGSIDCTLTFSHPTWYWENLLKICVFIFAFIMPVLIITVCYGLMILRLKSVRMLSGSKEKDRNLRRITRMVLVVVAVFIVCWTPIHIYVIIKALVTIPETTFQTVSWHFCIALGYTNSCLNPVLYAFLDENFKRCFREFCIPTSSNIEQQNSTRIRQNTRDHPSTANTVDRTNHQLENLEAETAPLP
Assay: biochemical
Format: binding
In this section, each of the molecules is paired with its reported Ki.
Readout: Ki

                                    molecule  endpoint_result
 0  CCC[C@H](c1nc2c(F)cc(F)c(F)c2c(=O)n1CC)N1CCN[C@@H](C)C1    100 to 500 nM
 1  CCC[C@H](c1nc2ccc(Cl)cc2c(=O)n1C)N1CCN[C@@H](C)C1    100 to 500 nM
 2  CCCC(c1nc2ccc(-c3ccncc3)cc2c(=O)n1CC)N1C[C@@H](C)N[C@@H](C)C1 (stereo partly shown)         > 500 nM
 3  CCC[C@@H](c1nc2ccc(Br)cc2c(=O)n1CC)N1CCN[C@@H](COC)C1         > 500 nM
 4  CCC[C@H](c1nc2ncc(Br)cc2c(=O)n1CCC)N1CCN[C@@H](C)C1         > 500 nM
 5  CCC[C@H](c1nc2ccc(Br)cc2c(=O)n1CC)N1C[C@@H](C)N[C@@H](C)C1         > 500 nM
 6  CCC[C@@H](c1nc2ccccc2c(=O)n1CCOC)N1C[C@@H](C)N[C@@H](C)C1         > 500 nM
 7  CCCC(c1nc2c(Cl)cc(F)cc2c(=O)n1CC)N1CCNCC1 (stereo not shown)    100 to 500 nM
 8  CCCC(c1nc2ccc(Br)cc2c(=O)n1CCC)N1CCNCC1 (stereo not shown)    100 to 500 nM
 9  CCC[C@H](c1nc2ccc(OC(F)(F)F)cc2c(=O)n1CC)N1CCN[C@@H](C)C1         > 500 nM
10  CCC[C@H](c1nc2cc(O[C@@H](CNC)c3ccccc3)ccc2c(=O)n1C)N1C[C@@H](C)N[C@@H](C)C1         > 500 nM
11  CCCC(c1nc2cc(F)ccc2c(=O)n1CC)N1C[C@@H](C)N[C@@H](C)C1 (stereo partly shown)         > 500 nM
12  CCCC(c1nc2cccc(Br)c2c(=O)n1CC)N1C[C@@H](C)N[C@@H](C)C1 (stereo partly shown)         > 500 nM
13  CCC[C@H](c1nc2cc(O[C@@H](CCNC)c3ccccc3)ccc2c(=O)n1C)N1C[C@@H](C)N[C@@H](C)C1         > 500 nM
14  CCCC(c1nc2ccc(C)cc2c(=O)n1CCOC)N1C[C@@H](C)N[C@@H](C)C1 (stereo partly shown)         > 500 nM
15  CCC[C@H](c1nc2ccc(Br)cc2c(=O)n1CC)N1CCN(C)[C@H](C)C1    100 to 500 nM

* * *

Biological target: Human α2δ-1 subunit of Cav2.2 calcium channel (Homo sapiens, UniProt P54289)
Sequence (P54289 25-1103): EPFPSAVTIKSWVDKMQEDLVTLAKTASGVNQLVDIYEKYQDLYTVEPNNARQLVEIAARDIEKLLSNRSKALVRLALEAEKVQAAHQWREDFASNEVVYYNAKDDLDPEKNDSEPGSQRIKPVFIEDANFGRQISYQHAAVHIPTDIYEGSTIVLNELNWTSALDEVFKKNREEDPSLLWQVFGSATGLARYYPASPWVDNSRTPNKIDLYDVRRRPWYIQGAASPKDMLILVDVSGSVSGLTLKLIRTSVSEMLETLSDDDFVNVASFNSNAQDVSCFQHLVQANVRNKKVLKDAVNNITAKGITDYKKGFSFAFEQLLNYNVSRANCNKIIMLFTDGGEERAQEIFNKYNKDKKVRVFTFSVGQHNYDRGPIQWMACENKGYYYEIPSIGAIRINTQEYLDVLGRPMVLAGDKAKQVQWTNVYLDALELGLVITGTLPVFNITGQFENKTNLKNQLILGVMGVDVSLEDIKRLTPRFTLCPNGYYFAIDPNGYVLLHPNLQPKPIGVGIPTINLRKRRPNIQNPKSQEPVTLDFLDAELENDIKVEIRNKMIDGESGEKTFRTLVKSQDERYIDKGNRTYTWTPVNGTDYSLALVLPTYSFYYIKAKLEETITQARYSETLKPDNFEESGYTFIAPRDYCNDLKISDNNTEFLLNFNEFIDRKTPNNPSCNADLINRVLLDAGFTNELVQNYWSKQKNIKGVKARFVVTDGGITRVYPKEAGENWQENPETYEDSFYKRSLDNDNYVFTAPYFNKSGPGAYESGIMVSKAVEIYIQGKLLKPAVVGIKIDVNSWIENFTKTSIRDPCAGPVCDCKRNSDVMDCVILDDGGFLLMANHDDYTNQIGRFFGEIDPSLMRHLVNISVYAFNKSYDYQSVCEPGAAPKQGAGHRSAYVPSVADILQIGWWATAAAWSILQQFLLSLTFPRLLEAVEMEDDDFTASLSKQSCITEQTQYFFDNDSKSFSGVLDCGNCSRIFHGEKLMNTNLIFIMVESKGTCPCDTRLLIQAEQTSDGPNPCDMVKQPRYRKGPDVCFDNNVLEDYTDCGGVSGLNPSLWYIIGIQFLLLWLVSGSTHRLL
Assay: biochemical
Assay type: binding
In this section, each of the compounds is paired with its reported Ki.
Readout: Ki

>>> print(df.to_string())
                                    compound                           subject_of_test  endpoint_result
 0  CCCC(c1nc2ccc(C#N)cc2c(=O)n1CC)N1C[C@@H](C)N[C@@H](C)C1 (stereo partly drawn)  Human α2δ-1 subunit of Cav2.2 calcium channel (Homo sapiens, UniProt P54289)         < 500 nM
 1  CCC[C@@H](c1nc2ccc(Br)cc2c(=O)n1CC)N1C[C@@H](C)N[C@@H](C)C1  Human α2δ-1 subunit of Cav2.2 calcium channel (Homo sapiens, UniProt P54289)   500 to 5000 nM
 2  CCC[C@H](c1nc2ccc(Br)cc2c(=O)n1CC)N1CCN[C@@H](C)C1  Human α2δ-1 subunit of Cav2.2 calcium channel (Homo sapiens, UniProt P54289)         < 500 nM
 3  CCCC(c1nc2ccc(N(C)CCNC)cc2c(=O)n1CC)N1C[C@@H](C)N[C@@H](C)C1 (stereo partly drawn)  Human α2δ-1 subunit of Cav2.2 calcium channel (Homo sapiens, UniProt P54289)         < 500 nM
 4  CCC[C@@H](c1nc2c(F)cc(OC)cc2c(=O)n1CC)N1CCN[C@@H](C)C1  Human α2δ-1 subunit of Cav2.2 calcium channel (Homo sapiens, UniProt P54289)        > 5000 nM
 5  CCCC(c1nc2cc(Br)ccc2c(=O)n1CC)N1C[C@@H](C)N[C@@H](C)C1 (stereo partly drawn)  Human α2δ-1 subunit of Cav2.2 calcium channel (Homo sapiens, UniProt P54289)         < 500 nM
 6  CCCC(c1nc2ccc(O)cc2c(=O)n1CC)N1C[C@@H](C)N[C@@H](C)C1 (stereo partly drawn)  Human α2δ-1 subunit of Cav2.2 calcium channel (Homo sapiens, UniProt P54289)         < 500 nM
 7  CCC[C@H](c1nc2ccc(Br)cc2c(=O)n1CC)[C@H]1CCNCC1(F)F [Example 196]  Human α2δ-1 subunit of Cav2.2 calcium channel (Homo sapiens, UniProt P54289)        > 5000 nM
 8  CCC[C@@H](c1nc2c(F)cc(Br)cc2c(=O)n1CC)N1CCNCC1  Human α2δ-1 subunit of Cav2.2 calcium channel (Homo sapiens, UniProt P54289)        > 5000 nM
 9  CCC[C@H](c1nc2ccc(F)cc2c(=O)n1CCC)N1CCN[C@@H](C)C1  Human α2δ-1 subunit of Cav2.2 calcium channel (Homo sapiens, UniProt P54289)         < 500 nM
10  CCCC(c1nc2ccc(C)cc2c(=O)n1CCOC)N1C[C@@H](C)N[C@@H](C)C1 (stereo partly drawn)  Human α2δ-1 subunit of Cav2.2 calcium channel (Homo sapiens, UniProt P54289)         < 500 nM
11  CCC[C@H](c1nc2cc(F)c(F)cc2c(=O)n1CC)N1CCN[C@@H](C)C1  Human α2δ-1 subunit of Cav2.2 calcium channel (Homo sapiens, UniProt P54289)         < 500 nM
12  CCCC(c1nc2cc(F)ccc2c(=O)n1CC)N1C[C@@H](C)N[C@@H](C)C1 (stereo partly drawn)  Human α2δ-1 subunit of Cav2.2 calcium channel (Homo sapiens, UniProt P54289)         < 500 nM
13  CCCC(c1nc2ccc(N3CCC(N(C)Cc4ccccc4)CC3)cc2c(=O)n1CC)N1C[C@@H](C)N[C@@H](C)C1 (stereo partly drawn)  Human α2δ-1 subunit of Cav2.2 calcium channel (Homo sapiens, UniProt P54289)         < 500 nM
14  CCC[C@H](c1nc2c(F)cc(F)cc2c(=O)n1CC)N1CCNCC1  Human α2δ-1 subunit of Cav2.2 calcium channel (Homo sapiens, UniProt P54289)         < 500 nM
15  CCC[C@H](c1nc2cnc(C(F)(F)F)cc2c(=O)n1CC)N1CCN[C@H](C)C1  Human α2δ-1 subunit of Cav2.2 calcium channel (Homo sapiens, UniProt P54289)         < 500 nM
16  CCC[C@H](c1nc2c(F)cccc2c(=O)n1CC)N1CCN[C@@H](C)C1  Human α2δ-1 subunit of Cav2.2 calcium channel (Homo sapiens, UniProt P54289)         < 500 nM
17  CCC[C@@H](c1nc2ccc(Cl)cc2c(=O)n1CC)N1CCN[C@H](CF)C1  Human α2δ-1 subunit of Cav2.2 calcium channel (Homo sapiens, UniProt P54289)        > 5000 nM
18  CCC[C@@H](c1nc2ncc(Br)cc2c(=O)n1CCC)N1CCN[C@@H](C)C1  Human α2δ-1 subunit of Cav2.2 calcium channel (Homo sapiens, UniProt P54289)        > 5000 nM
19  CCCC(c1nc2ccc(Br)cc2c(=O)n1CC)N1CCNCC1 (stereo not drawn)  Human α2δ-1 subunit of Cav2.2 calcium channel (Homo sapiens, UniProt P54289)         < 500 nM
20  CCC[C@H](c1nc2cc(F)c(Br)cc2c(=O)n1C)N1CCN[C@@H](C)C1  Human α2δ-1 subunit of Cav2.2 calcium channel (Homo sapiens, UniProt P54289)         < 500 nM
21  CCCC(c1nc2c(Br)cccc2c(=O)n1CC)N1C[C@@H](C)N[C@@H](C)C1 (stereo partly drawn)  Human α2δ-1 subunit of Cav2.2 calcium channel (Homo sapiens, UniProt P54289)        > 5000 nM
22  CCC[C@@H](c1nc2ccccc2c(=O)n1CCOC)N1C[C@@H](C)N[C@@H](C)C1  Human α2δ-1 subunit of Cav2.2 calcium channel (Homo sapiens, UniProt P54289)   500 to 5000 nM
23  CCC[C@H](c1nc2ccc(OC(F)(F)F)cc2c(=O)n1CC)N1CCN[C@@H](C)C1  Human α2δ-1 subunit of Cav2.2 calcium channel (Homo sapiens, UniProt P54289)         < 500 nM
24  CCCC(c1nc2ccc(Br)c(Cl)c2c(=O)n1CC)N1CCNCC1 (stereo not drawn)  Human α2δ-1 subunit of Cav2.2 calcium channel (Homo sapiens, UniProt P54289)         < 500 nM
25  CCCC(c1nc2ncc(Br)cc2c(=O)n1CC)N1C[C@@H](C)N[C@@H](C)C1 (stereo partly drawn)  Human α2δ-1 subunit of Cav2.2 calcium channel (Homo sapiens, UniProt P54289)         < 500 nM
26  CCC[C@@H](c1nc2cc(Cl)c(Cl)cc2c(=O)n1CC)N1CCN[C@@H](C)C1  Human α2δ-1 subunit of Cav2.2 calcium channel (Homo sapiens, UniProt P54289)        > 5000 nM
27  CCCC(c1nc2ccc(Br)c(F)c2c(=O)n1CC)N1CCNCC1 (stereo not drawn)  Human α2δ-1 subunit of Cav2.2 calcium channel (Homo sapiens, UniProt P54289)         < 500 nM
28  CCCC(c1nc2cc(OC)ccc2c(=O)n1CC)N1C[C@@H](C)N[C@@H](C)C1 (stereo partly drawn)  Human α2δ-1 subunit of Cav2.2 calcium channel (Homo sapiens, UniProt P54289)         < 500 nM
29  CCC[C@H](c1nc2ccc(Br)cc2c(=O)n1CC)N1C[C@H](C)N[C@@H](C)C1  Human α2δ-1 subunit of Cav2.2 calcium channel (Homo sapiens, UniProt P54289)        > 5000 nM
30  CCC[C@H](c1nc2ccc(Cl)cc2c(=O)n1C)N1CCN[C@@H](C)C1  Human α2δ-1 subunit of Cav2.2 calcium channel (Homo sapiens, UniProt P54289)         < 500 nM
31  CCC[C@H](c1nc2ccc(NCC[C@]3(c4ccccn4)CCOC4(CCCC4)C3)cc2c(=O)n1CC)N1C[C@@H](C)N[C@@H](C)C1  Human α2δ-1 subunit of Cav2.2 calcium channel (Homo sapiens, UniProt P54289)   500 to 5000 nM
32  CCC[C@@H](c1nc2ccc(N3C[C@@H](C)OC4(CCN(CCc5ccccc5)CC4)C3)cc2c(=O)n1CC)N1C[C@@H](C)N[C@@H](C)C1  Human α2δ-1 subunit of Cav2.2 calcium channel (Homo sapiens, UniProt P54289)         < 500 nM
